Measured values drawn from the supplement of paper PMC9112550 for this set.

# Test system: Escherichia coli TOP10;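 also: peptides expressed intracellularly from a pBAD plasmid library in pooled LB shake-flask culture, induced with 0.3% L-arabinose, DNA abundance read by NGS, three biological replicates, DESeq2 with apeglm shrinkage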
# assayDetails: shrunken log2 fold change of peptide-encoding DNA abundance (4.5 h post-induction vs induction); higher = less antimicrobial activity (less host growth inhibition)
# reportedConditions: time post-induction: 4.5 h; library: site-saturation at positions 5, 18, 19, 20
Param threshold (-0.02) applies to shrunken log2 fold change; output 1 when value >= threshold, 0 when value < threshold.

chainSequence	studyTarget	assignedLabel
RRIRWRPPRLPRPRPRPQYTPRP	Escherichia coli TOP10	0
RRIRIRPPRLPRPRPRPAKWPRP	Escherichia coli TOP10	1
RRIRFRPPRLPRPRPRPLTYPRP	Escherichia coli TOP10	0
RRIRFRPPRLPRPRPRPCDQPRP	Escherichia coli TOP10	1
RRIRWRPPRLPRPRPRPINTPRP	Escherichia coli TOP10	0
RRIRARPPRLPRPRPRPMHKPRP	Escherichia coli TOP10	1
RRIRSRPPRLPRPRPRPVTDPRP	Escherichia coli TOP10	1
RRIRKRPPRLPRPRPRPDIEPRP	Escherichia coli TOP10	1
